Quantity measured: IC50

**Q:** Identify the measured IC50 of O=C(O)[C@H]1C[C@H](Nc2ncc(-c3ccc4cnccc4c3)s2)C1 for DYRK1A (Homo sapiens (Human)).
**A:** ≤ 10 nM

**Q:** Identify the measured IC50 of O=C(O)C1CCN(Cc2cncc3ccc(-c4cnc(C#CC5CCOCC5)s4)cc23)CC1 for DYRK1A (Homo sapiens (Human)).
**A:** 100 to 1000 nM

meta.source: patent US20250066318A1
